molecular target: hSCN3A sodium channels (Homo sapiens); construct: expressed in transfected cells; assay: hSCN3A electrophysiology, whole-cell patch-clamp or PatchXpress 7000, estimated IC-50 (Table B); assay type: cell-based; conditions: estimated IC-50; hSCN3A cells, whole-cell patch-clamp or PatchXpress 7000; read-out: SCN3A EIC-50
pIC50: −log10 of the molar value.
Rule: pIC50 of 6 or more gives class 1; anything lower gives class 0.

Here's what some known entries look like.
QUERY: // inclusive: pIC50 at least 6? input: N#Cc1cccc(CNC(=O)c2ccc(S(=O)(=O)Nc3nccs3)cc2)c1
RESULT: class 0

QUERY: // inclusive: pIC50 at least 6? input: Cc1noc(C)c1NS(=O)(=O)c1ccc(C(=O)NCc2ccc(C(F)(F)F)cc2)cc1
RESULT: class 0

QUERY: // inclusive: pIC50 at least 6? input: O=C(NCc1ccc(OC(F)(F)F)c(F)c1)c1ccc(S(=O)(=O)Nc2ncc(Cl)s2)c(Cl)c1
RESULT: class 1

QUERY: // inclusive: pIC50 at least 6? input: O=C(NCc1ccc(F)c(OC(F)(F)F)c1)c1ccc(S(=O)(=O)Nc2nccs2)c(Cl)c1
RESULT: class 0

QUERY: // inclusive: pIC50 at least 6? input: COc1ccccc1C1CCCN1C(=O)c1ccc(S(=O)(=O)Nc2nccs2)cc1 (centres unmarked)
RESULT: class 0

QUERY: // inclusive: pIC50 at least 6? input: O=C(NCc1ccc(Cl)cc1C(F)(F)F)c1ccc(S(=O)(=O)Nc2nccs2)cc1
RESULT: class 1

Attention now shifts to the item below.
QUERY: // inclusive: pIC50 at least 6? input: O=C(NCc1ccc(C(F)(F)F)cc1)c1ccc(S(=O)(=O)Nc2nncs2)cc1
RESULT: class 0

----------
Listed here: items and their measured IC50.
target: hSCN3A sodium channels (Homo sapiens, UniProt Q9NY46); construct: expressed in transfected cells; assay: hSCN3A electrophysiology, whole-cell patch-clamp or PatchXpress 7000, estimated IC-50 (Table B); type: cell-based; details: estimated IC-50; hSCN3A cells, whole-cell patch-clamp or PatchXpress 7000; read-out: SCN3A EIC-50
Sequence (Q9NY46 whole entry): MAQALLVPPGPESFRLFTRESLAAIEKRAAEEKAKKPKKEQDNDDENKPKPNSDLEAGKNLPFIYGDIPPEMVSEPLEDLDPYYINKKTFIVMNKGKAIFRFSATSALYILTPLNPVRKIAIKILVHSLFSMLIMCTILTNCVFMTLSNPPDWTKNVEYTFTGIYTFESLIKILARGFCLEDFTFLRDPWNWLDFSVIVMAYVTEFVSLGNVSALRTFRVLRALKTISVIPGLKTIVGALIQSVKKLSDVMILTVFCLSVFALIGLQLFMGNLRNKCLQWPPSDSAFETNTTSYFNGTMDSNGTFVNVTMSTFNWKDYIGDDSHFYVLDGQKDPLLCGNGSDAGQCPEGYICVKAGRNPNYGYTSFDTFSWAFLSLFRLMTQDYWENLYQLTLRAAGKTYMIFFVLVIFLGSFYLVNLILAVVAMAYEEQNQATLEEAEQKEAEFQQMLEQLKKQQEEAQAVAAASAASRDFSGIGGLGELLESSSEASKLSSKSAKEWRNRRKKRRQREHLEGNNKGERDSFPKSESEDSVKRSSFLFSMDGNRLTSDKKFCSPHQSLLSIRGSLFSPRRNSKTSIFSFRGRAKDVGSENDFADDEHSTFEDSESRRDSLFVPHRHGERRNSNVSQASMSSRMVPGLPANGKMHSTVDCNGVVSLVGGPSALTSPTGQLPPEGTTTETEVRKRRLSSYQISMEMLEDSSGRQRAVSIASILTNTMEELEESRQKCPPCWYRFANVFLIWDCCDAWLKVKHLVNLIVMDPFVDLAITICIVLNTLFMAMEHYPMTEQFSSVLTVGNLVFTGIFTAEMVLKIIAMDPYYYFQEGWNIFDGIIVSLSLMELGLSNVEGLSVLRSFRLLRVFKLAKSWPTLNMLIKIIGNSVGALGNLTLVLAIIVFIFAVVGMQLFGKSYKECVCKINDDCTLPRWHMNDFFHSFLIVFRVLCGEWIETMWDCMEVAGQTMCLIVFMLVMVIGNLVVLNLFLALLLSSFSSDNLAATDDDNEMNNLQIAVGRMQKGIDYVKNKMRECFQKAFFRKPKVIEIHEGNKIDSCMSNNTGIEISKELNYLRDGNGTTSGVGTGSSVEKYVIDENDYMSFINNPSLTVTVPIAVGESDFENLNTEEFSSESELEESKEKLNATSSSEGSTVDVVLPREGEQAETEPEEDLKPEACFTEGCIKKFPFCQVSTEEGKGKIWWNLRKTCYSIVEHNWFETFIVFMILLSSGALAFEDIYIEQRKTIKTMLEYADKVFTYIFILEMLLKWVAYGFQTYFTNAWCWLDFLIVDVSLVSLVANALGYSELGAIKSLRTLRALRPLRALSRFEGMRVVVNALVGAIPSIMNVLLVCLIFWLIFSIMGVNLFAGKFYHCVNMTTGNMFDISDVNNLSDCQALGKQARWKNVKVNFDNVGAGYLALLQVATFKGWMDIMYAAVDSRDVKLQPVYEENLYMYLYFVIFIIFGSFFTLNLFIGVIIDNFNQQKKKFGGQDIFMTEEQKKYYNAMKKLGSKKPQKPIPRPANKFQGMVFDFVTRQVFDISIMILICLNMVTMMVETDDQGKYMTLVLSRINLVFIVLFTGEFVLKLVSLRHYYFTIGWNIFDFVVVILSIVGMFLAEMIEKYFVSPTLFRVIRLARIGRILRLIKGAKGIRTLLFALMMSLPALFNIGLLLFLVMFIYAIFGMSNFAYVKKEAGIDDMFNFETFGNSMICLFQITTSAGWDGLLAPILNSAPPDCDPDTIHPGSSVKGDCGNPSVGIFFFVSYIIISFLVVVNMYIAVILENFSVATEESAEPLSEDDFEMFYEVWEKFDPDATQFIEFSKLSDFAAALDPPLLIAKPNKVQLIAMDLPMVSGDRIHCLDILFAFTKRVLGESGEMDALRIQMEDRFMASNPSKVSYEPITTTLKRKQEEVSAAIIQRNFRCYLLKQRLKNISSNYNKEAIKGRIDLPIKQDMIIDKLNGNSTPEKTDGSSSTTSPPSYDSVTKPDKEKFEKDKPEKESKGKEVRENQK

Please review the following examples before continuing.
QUERY: Find the measured IC50 of O=C(NCc1ccc(F)cc1F)c1ccc(S(=O)(=O)Nc2nccs2)cc1 [Example 94] and report it.
RESULT: > 0.1 µM

QUERY: Find the measured IC50 of O=C(c1ccc(S(=O)(=O)Nc2nccs2)cc1)N1CCC(O)(c2cccc(F)c2)CC1 [Example 220] and report it.
RESULT: > 1 µM

QUERY: Find the measured IC50 of COc1ccccc1CC1CCCN(C(=O)c2ccc(S(=O)(=O)Nc3nccs3)cc2)C1 (stereo not shown) [Example 196] and report it.
RESULT: > 1 µM

Attention now turns to another entry.
QUERY: Find the measured IC50 of Cn1cnc(NS(=O)(=O)c2ccc(C(=O)NCc3ccc(C(F)(F)F)cc3)cc2)n1 [Example 9] and report it.
RESULT: > 10 µM

----------
molecular target: hSCN3A sodium channels (Homo sapiens); construct: expressed in transfected cells; assay: hSCN3A electrophysiology, whole-cell patch-clamp or PatchXpress 7000, estimated IC-50 (Table B); format: cell-based; settings: estimated IC-50; hSCN3A cells, whole-cell patch-clamp or PatchXpress 7000; read-out: SCN3A EIC-50
Listed here: items and their measured pIC50.
The scale used: pIC50 is minus the common logarithm of the concentration in molar units.

Please review the following examples before continuing.
QUERY: Find the measured pIC50 of O=C(NCc1ccc(F)c(C(F)(F)F)c1)c1ccc(S(=O)(=O)Nc2ncc(Cl)s2)c(Cl)c1 and report it.
RESULT: 5.91

QUERY: Find the measured pIC50 of O=C(NCc1ccc(C(F)(F)F)cc1)c1ccc(S(=O)(=O)Nc2cscn2)cc1 and report it.
RESULT: 6.17

More entries:
QUERY: Find the measured pIC50 of O=C(NCCNc1ccc(Cl)cc1)c1ccc(S(=O)(=O)Nc2nccs2)cc1 and report it.
RESULT: 6.11
